# Tested on: STS
# Assay name: Plate assay, % inhibition
# Format: biochemical
# Measurement parameters: 1 μM
Could you please report measured Plate Assay, % inhibition 1 μM for the items listed next?
Give the value in % but do not write % after it.

So what's the measured Plate Assay, % inhibition 1 μM for this one? CSc1cc2c(cc1O)CCC1C2CC[C@]2(C)C(=O)CCC12 (stereo partly shown)
1

Subsequent entry: CCSc1cc2c(cc1OS(N)(=O)=O)CCC1C2CC[C@]2(C)C(=O)CCC12 (stereo partly shown)
1

Subsequent entry: CSc1cc2c(cc1OS(N)(=O)=O)CCC1C2CC[C@]2(C)C(=O)CCC12 (stereo partly shown)
53

Entry source: patent US7342004B2
